TARGET DESC: mortalin-NBD (Homo sapiens)
Sequence (P38646 52-431): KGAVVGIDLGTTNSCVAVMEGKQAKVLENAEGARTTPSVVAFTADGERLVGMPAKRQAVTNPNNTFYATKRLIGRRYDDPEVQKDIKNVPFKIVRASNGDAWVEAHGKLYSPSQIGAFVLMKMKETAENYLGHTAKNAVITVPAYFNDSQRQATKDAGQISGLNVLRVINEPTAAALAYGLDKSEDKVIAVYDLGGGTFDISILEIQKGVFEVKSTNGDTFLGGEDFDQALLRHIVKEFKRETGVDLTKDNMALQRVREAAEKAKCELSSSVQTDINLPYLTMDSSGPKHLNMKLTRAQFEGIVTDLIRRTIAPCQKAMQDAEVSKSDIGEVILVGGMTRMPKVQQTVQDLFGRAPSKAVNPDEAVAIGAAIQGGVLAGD
PROCEDURE TEXT: ITC binding of modified ADP analogues to mortalin-NBD
CONDITION SUMMARY: ITC, 25 °C, mortalin-NBD
MEASUREMENT NAME: Kd (nM)
Answers are plain numbers, in nM.

Lookup result for Nc1nc(Cl)nc2c1ncn2[C@@H]1O[C@H](COP(=O)(O)OP(=O)(O)O)[C@@H](O)[C@H]1O ; measured Kd: 1770

----------
TARGET DESC: Hsp70-NBD (Homo sapiens, UniProt P0DMV8)
Sequence (P0DMV8 1-381): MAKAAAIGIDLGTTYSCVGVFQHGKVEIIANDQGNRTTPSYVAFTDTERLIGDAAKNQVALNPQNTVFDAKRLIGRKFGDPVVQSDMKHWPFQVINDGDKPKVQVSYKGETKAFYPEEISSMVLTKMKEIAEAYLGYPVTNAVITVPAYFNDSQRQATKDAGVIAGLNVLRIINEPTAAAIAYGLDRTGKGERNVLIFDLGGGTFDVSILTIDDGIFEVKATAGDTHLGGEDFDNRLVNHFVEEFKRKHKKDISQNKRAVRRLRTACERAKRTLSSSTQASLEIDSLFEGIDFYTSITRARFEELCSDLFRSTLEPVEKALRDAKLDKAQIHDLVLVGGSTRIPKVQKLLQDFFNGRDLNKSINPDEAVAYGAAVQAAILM
PROCEDURE TEXT: ITC binding of modified ADP analogues to Hsp70-NBD
CONDITION SUMMARY: ITC, 25 °C, Hsp70-NBD, binding entropy change
MEASUREMENT NAME: ΔS
# do not omit the unit; it follows the number

>>> print(df.to_string())
                                   molecule           assay_result
0  Nc1ncnc2c1ncn2[C@@H]1O[C@H](COP(=O)(O)OP(=O)(O)O)[C@@H](O)[C@H]1O [ADP, reference compound]   60.54 ± 3.65 J/mol·K
1  O=P(O)(O)OP(=O)(O)OC[C@H]1O[C@@H](n2cnc3c(NCCc4ccccc4)ncnc32)[C@H](O)[C@@H]1O  −22.97 ± 3.25 J/mol·K

Turning to the following molecule.
Memo: Cc1cccc(CNc2ncnc3c2ncn3[C@@H]2O[C@H](COP(=O)(O)OP(=O)(O)O)[C@@H](O)[C@H]2O)c1 , reported ΔS: 58.44 ± 3.96 J/mol·K

----------
For each record, write down the corresponding ΔΗ.
TARGET DESC: Hsc70-NBD (Homo sapiens, UniProt P11142)
Sequence (P11142 1-385): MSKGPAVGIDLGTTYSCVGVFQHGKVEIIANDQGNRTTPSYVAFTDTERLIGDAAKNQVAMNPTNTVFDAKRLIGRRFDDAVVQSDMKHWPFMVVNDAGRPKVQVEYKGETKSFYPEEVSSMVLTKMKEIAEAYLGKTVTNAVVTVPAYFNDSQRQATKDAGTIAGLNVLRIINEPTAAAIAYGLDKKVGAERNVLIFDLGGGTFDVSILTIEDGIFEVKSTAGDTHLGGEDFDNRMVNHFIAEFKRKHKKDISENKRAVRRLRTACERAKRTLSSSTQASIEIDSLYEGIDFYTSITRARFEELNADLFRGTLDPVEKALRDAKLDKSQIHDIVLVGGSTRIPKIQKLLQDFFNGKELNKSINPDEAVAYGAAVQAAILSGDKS
PROCEDURE TEXT: ITC binding of modified ADP analogues to Hsc70-NBD
CONDITION SUMMARY: ITC, 25 °C, Hsc70-NBD, binding enthalpy change
Give the figure together with its unit, number first.

Solved cases below.
COMPOUND	ΔΗ
Cc1cccc(CNc2ncnc3c2ncn3[C@@H]2O[C@H](COP(=O)(O)OP(=O)(O)O)[C@@H](O)[C@H]2O)c1	-10.22 ± 0.906 kcal/mol
O=P(O)(O)OP(=O)(O)OC[C@H]1O[C@@H](n2cnc3c(NCc4ccco4)ncnc32)[C@H](O)[C@@H]1O [6-Fu ADP, N6-furfuryladenosine-5’-diphosphate]	-5.457 ± 0.514 kcal/mol

Now for the compound whose ΔΗ we want.
Response field ΔΗ (Hsc70-NBD (Homo sapiens, UniProt P11142)) for item Nc1ncnc2c1ncn2[C@@H]1O[C@H](COP(=O)(O)OP(=O)(O)O)[C@@H](O)[C@H]1O [ADP, reference compound] : -7.359 ± 0.022 kcal/mol

----------
Give measured Ki for each item. Keep answers brief.
TARGET DESC: Hsp70-NBD (Homo sapiens, UniProt P0DMV8)
PROCEDURE TEXT: Competitive inhibition of ATPase activity
Format: biochemical
One number for each entry, in µM.

Sample answers from the record:
COMPOUND	UNIT ANNOTATION	Ki
O=P(O)(O)OP(=O)(O)OC[C@H]1O[C@@H](n2cnc3c(NCCc4ccccc4)ncnc32)[C@H](O)[C@@H]1O	µM	1160
O=P(O)(O)OP(=O)(O)OC[C@H]1O[C@@H](n2cnc3c(NC4CCCCC4)ncnc32)[C@H](O)[C@@H]1O [6-cHe ADP, N6-cyclohexyladenosine-5’-diphosphate]	µM	1240
O=P(O)(O)OP(=O)(O)OC[C@H]1O[C@@H](n2cnc3c(NCc4ccccc4)ncnc32)[C@H](O)[C@@H]1O [6-Bn ADP, N6-benzyladenosine-5’-diphosphate]	µM	1610
Cc1cccc(CNc2ncnc3c2ncn3[C@@H]2O[C@H](COP(=O)(O)OP(=O)(O)O)[C@@H](O)[C@H]2O)c1	µM	1300

Reported Ki for O=P(O)(O)OP(=O)(O)OC[C@H]1O[C@@H](n2cnc3c(NCc4ccco4)ncnc32)[C@H](O)[C@@H]1O [6-Fu ADP, N6-furfuryladenosine-5’-diphosphate] was 1860
